Numbers sourced from ChEMBL document CHEMBL1125883.

Species: Homo sapiens
Assay: In vitro inhibition of U 46619 induced aggregation of washed human platelets
Format: functional
pIC50: −log10 of the molar value.
readout-type: pIC50

Recorded results for 4 molecules are shown here.
molecule	pIC50
O=C(O)CCCCCC[C@@H]1C2CCC(C2)C1c1cccnc1 (stereo partly specified)	5.01
O=C(O)CCCCCC[C@@H]1C2CCC(C2)[C@@H]1c1cccnc1 (stereo partly specified)	5.14
O=C(O)CCC/C=C\C[C@@H]1C2CCC(C2)[C@@]1(CCCCCc1ccccc1)c1cccnc1 (stereo partly specified)	5.82
O=C(O)CCCCO/N=C(/c1cccnc1)c1cccc(C(F)(F)F)c1 [RIDOGREL]	5.89

P = O=C(O)CCCCCC[C@H]1C2CCC(C2)[C@H]1c1cccnc1 (stereo partly specified)
Q = O=C(O)CC/C=C\C[C@@]1(c2cccnc2)C2CCC(C2)[C@H]1CNS(=O)(=O)c1ccc(Cl)cc1 (stereo partly specified)
Query: Pick one, P or Q : lowest reported pIC50. Write down the label of the entry you select.
Response: P
